# method_summary: Cmax in mouse at 10 mg/kg, po
# Format: ADME, organism-based
# Set-up: route oral, dose 10 mg/kg
# assay_setup: in vivo
parameter_measured: Cmax (µM)

Below, each entry is followed by its recorded Cmax result.
| substance_smiles | quantitative_result |
| --- | --- |
| [2H]C([2H])([2H])NC(=O)c1nnc(NC(=O)C2CC2)cc1Nc1cccc(-c2ncccn2)c1OC | 5.4 |
| [2H]C([2H])([2H])NC(=O)c1nnc(NC(=O)C2CC2)cc1Nc1cccc(-c2cnc(C(C)(C)O)cn2)c1OC | 6.1 |

I. [2H]C([2H])([2H])NC(=O)c1nnc(NC(=O)C2CC2)cc1Nc1cccc(-c2cnc(C(=O)N(C)C)cn2)c1OC
II. [2H]C([2H])([2H])NC(=O)c1cnc(NC(=O)C2CC2)cc1Nc1cccc(-c2ncc(F)cn2)c1OC
Ask: Select the item whose Cmax value is smaller, choosing between I and II . Select an item and report its label.
Reply: I
